Quick reference for folding enthalpy among some sequences
Assay: folding enthalpy; higher = less favourable; fluorescence melt of hairpins on a sequencing array, two-state fit
Conditions: sodium 0.088 M
Numeric only. Scale: kcal/mol

Worked examples, 3 sequences total:
- Sequence input: "GTGGGGGGAAACTCCCAC (((((.(....).)))))"
  folding enthalpy (kcal/mol): -35.3
- Sequence input: "GACCGACGAAAGTCGTC (((.(((....))))))"
  folding enthalpy (kcal/mol): -10.6
- Sequence input: "GCGGAGCGAAAGCCACGC (((..((....))..)))"
  folding enthalpy (kcal/mol): -15.7

Query block: Supply recorded folding enthalpy for GGACACGAAAGTGCGTCC ((((((....)))..))) here.
Result block: -18.2

Query block: Look up and state reported folding enthalpy for GATCCTGATTAGGATC ((((((....))))))
Result block: -40.4

Query block: Read the entry GTACCGCGAAAGCGATAC (((.(((....))).))) and write its reported folding enthalpy.
Result block: -23.6

Query block: Given GACGTTGGAAACGATGTC (((.(.(....).).))) , respond with its folding enthalpy.
Result block: -16.9

Query block: Answer with the recorded folding enthalpy of GAACACGGAAACGTGTTC (((((((....))))))) only.
Result block: -38.1

Query block: Read off the recorded folding enthalpy for GTATACGAAAGTAGATAC ((((((....)))..)))
Result block: -10.1

###

Assay: folding enthalpy; higher = less favourable; fluorescence melt of hairpins on a sequencing array, two-state fit
Details: sodium 0.088 M
Give True when the value for folding enthalpy is at least -30 kcal/mol. Give False when it is less.

- Sequence input: "GACAGACGAAAGTCCGTC (((.(((....))).)))"
  Group label: "True"
- Sequence input: "CGTACGGAAACGTAACG ((((((....))).)))"
  Group label: "True"
- Sequence input: "GGCTTGGCGAAAGCCGCC (((..(((....))))))"
  Group label: "True"
- Sequence input: "GCCTCGCGAAAGCTAGGC ((((.((....)).))))"
  Group label: "False"
- Sequence input: "GATCATCATAATGATC ((((((....))))))"
  Group label: "False"
- Sequence input: "GCGTAGGGACGC ((((....))))"
  Group label: "True"
- Sequence input: "GAACCGGGAAACTGGTTC (((((.(....).)))))"
  Group label: "False"
- Sequence input: "GATCAAGTGTTGATC ((((((...))))))"
  Group label: "False"

Query block: folding enthalpy >= -30 kcal/mol for GAGTCAGGAAACTAACTC ((((.((....)).)))) ?
Result block: True

Query block: Threshold query (folding enthalpy >= -30 kcal/mol) on GATCGGGATCCGATC ((((((...))))))
Result block: False

Query block: Is the recorded value of folding enthalpy equal to or greater than -30 kcal/mol for this sequence? GGAAGCACGAAAGTGTCC (((..(((....))))))
Result block: True

Query block: Is the recorded value of folding enthalpy equal to or greater than -30 kcal/mol for this sequence? GATCTACTGATAGATC ((((((....))))))
Result block: True

Query block: Exam item: decide whether the reported folding enthalpy for GTTACCGAAAGGTTCAAC ((((((....)))..))) is at least -30 kcal/mol.
Result block: True
